# maps each entry to its pIC50
molecular target: hNET transporter (Homo sapiens, UniProt P23975); construct: expressed in transfected cells; membranes prepared; test: Human norepinephrine transporter (hNET) scintillation proximity assay, competition with [3H]-Nisoxetine; type: binding
Sequence (P23975 whole entry): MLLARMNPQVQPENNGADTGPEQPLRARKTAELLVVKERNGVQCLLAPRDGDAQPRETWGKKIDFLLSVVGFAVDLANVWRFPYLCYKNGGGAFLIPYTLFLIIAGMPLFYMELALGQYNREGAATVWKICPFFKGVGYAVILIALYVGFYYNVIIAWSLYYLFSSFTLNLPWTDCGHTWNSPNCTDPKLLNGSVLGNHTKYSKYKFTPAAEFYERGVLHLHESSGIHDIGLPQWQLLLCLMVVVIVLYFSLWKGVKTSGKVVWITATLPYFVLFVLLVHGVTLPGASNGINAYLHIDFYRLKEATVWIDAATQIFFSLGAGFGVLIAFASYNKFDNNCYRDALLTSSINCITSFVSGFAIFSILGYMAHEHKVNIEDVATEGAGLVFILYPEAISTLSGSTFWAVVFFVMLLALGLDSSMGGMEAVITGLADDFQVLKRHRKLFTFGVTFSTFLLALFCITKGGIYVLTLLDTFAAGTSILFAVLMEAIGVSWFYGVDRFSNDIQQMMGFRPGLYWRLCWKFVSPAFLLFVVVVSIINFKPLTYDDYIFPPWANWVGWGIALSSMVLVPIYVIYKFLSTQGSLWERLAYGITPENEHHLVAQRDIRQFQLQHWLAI
pIC50: −log10 of the molar value.
ATTRIBUTE_MEASURED: pIC50

# MOLECULE, NUMERIC_VALUE
measured = [
    ("CCCC1(C(=O)c2ccc(Cl)c(-c3ccn[nH]3)c2)CCCNC1 (centres unmarked)", 7.51),
    ("CC(C)(C)CCC1(C(=O)c2cc(Cl)c(N)c(C(F)(F)F)c2)CCNC1 (centres unmarked)", 7.80),
    ("CCCC1(C(=O)c2ccc(Cl)c(Sc3ccccc3)c2)CCNC1 (centres unmarked)", 7.06),
    ("CC(C)CCC1(C(=O)c2ccc(Cl)c(Oc3ccccc3)c2)CCNC1 (centres unmarked)", 7.92),
    ("CC(C)CC[C@]1(C(=O)c2cc(F)c(N)c(Cl)c2)CCNC1", 7.48),
    ("CC(C)(C)CC[C@]1(C(=O)c2ccc(Cl)c(Cl)c2)CCCNC1", 7.98),
    ("CC(C)C[C@@]1(C(=O)c2ccc(Cl)c(Cl)c2N)CCNC1", 7.42),
    ("CC(C)C[C@@]1(C(=O)c2ccc(N)c(Cl)c2)CCNC1", 7.26),
]
